Hello, the source for this data is paper PMC10397247, in case you need it.

Biological target: T1, 4H993-AA
T1 chain: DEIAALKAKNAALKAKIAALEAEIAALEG
Experiment: two-hybrid library CCmax;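 also: natural log of median RNA to DNA barcode read ratio; higher means stronger binding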
Details: mean of both orientations
Measured quantity: interaction score

| Binder | interaction score |
| --- | --- |
| DKNAALKAKIAALKAENAALEAEIAALEG [4H3921-AA] | 0.874 |

[A] DEIAALEAKIAALKAENAALEAKIAALKG [4H342-AA]
[B] DKIAALKAKIAALKAKNAALKAKNAALKG [4H2944-AA]
[C] DKNAALKAEIAALEAKIAALKAENAALEG [4H3627-AA]
-- ask Sort (3 binders) by interaction score: min first. // ordering of labels required in reply
-- reply B, C, A
